# assay system: T1, membrane-bound full-length human HVEM on stable HVEM-transfected HEK293F cells (clone no. 128) (human, UniProt Q92956 39-283)
# T1 construct: The same cDNA was also expressed on Sf9 insect cells; also called TNFRSF14; CD270
# T1 sequence: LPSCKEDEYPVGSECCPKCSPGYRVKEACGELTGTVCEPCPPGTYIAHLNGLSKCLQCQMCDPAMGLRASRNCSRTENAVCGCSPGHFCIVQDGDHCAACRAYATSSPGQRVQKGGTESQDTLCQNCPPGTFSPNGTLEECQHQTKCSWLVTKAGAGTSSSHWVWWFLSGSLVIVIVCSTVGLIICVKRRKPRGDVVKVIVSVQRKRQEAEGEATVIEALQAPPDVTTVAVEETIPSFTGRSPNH
# assay details: FACS, Ab 10 µg/mL then biotinylated TNFβ on HVEM-HEK293F
Below, each entry is listed with its recorded % blocking of ligand binding.

Answered examples (5):
binder: chimeric mouse/human IgG4/kappa anti-human HVEM antibody no. 11H7 (antibody, V domains shown, 40/41 within the entry; Stabilized human IgG4 (S239P) already in the entry; also called chimeric 11H7) VH: QVQLKQSGPGLVQPSQSLSITCTVSGFSLTIYGVHWVRQSPGKGLEWLGVIWSGGSTDYNAAFISRLSISKDNSKSQVFFKMNSLQANDTAIYYCARRDYGSRSFYYAMDYWGQGTSVTVSS VL: EIVLTQSPALMAASPGEKVTITCSVSSSISSSNLHWYQQKSETSPKPWIYGTSNLASGVPVRFSGSGSGTSYSLTISSMEAEDAATYYCQQWSSYPLTFGGGTKLEIKR
% blocking of ligand binding: > 55%
//
binder: chimeric mouse/human IgG4/kappa anti-human HVEM antibody no. 36H12 (antibody, V domains shown, 16/17 within the entry; Stabilized human IgG4 (S239P) already in the entry; also called chimeric 36H12) VH: EVQLQQSGAGLVKPGASVKLSCTASGFNIKDTYMHWVRQRPEQGLEWIGRIDPATANTKYDPKFQGKATLTTDTSSNTAYLQLSSLTSEDTAVYYCVTYGYDVSWFAYWGLGALVTVSA VL: DVLMTQTPLSLPVSLGDQASISCRSSQSIVHSNGITYLEWYLQKPGQSPKLLIYKVSNRFSGVPDRFSGSGSGTDFTLKISRVEAEDLGVYYCFQGSHVPLTFGAGTKLELKR
% blocking of ligand binding: > 94%
//
binder: chimeric mouse/human IgG4/kappa anti-human HVEM antibody no. 49G4 (antibody, V domains shown, 48/49 within the entry; Stabilized human IgG4 (S239P) already in the entry; also called chimeric 49G4) VH: EVQLQQSGAELVKPGASVKLSCRASGFNIKDTYMHWVKQRPEQGLEWIGRIDPARGNTKYDPKFQGKATITADTSSNTAYLQLSSLTSEDTAVYYCASAMDYWGQGTSVTVSS VL: DVLMTQTPLSLPVSLGDQASISCRSSQSIVHSNGNTYLEWFLQKPGQSPKLLIYKVSNRFSGVPDRFSGSGSGTDFTLKISRVEAEDLGVYYCFQGSHVPLTFGAGTKLELKR
% blocking of ligand binding: > 80%
//
binder: mouse anti-human HVEM antibody no. 49G4 (antibody, mouse IgG1, V domains shown, mouse IgG1/kappa; also called 49G4 (mouse)) VH: EVQLQQSGAELVKPGASVKLSCRASGFNIKDTYMHWVKQRPEQGLEWIGRIDPARGNTKYDPKFQGKATITADTSSNTAYLQLSSLTSEDTAVYYCASAMDYWGQGTSVTVSS VL: DVLMTQTPLSLPVSLGDQASISCRSSQSIVHSNGNTYLEWFLQKPGQSPKLLIYKVSNRFSGVPDRFSGSGSGTDFTLKISRVEAEDLGVYYCFQGSHVPLTFGAGTKLELK
% blocking of ligand binding: > 85%
//
binder: chimeric mouse/human IgG4/kappa anti-human HVEM antibody no. 45H6 (antibody, V domains shown, 24/25 within the entry; Stabilized human IgG4 (S239P) already in the entry; also called chimeric 45H6) VH: DVQLVESGGGLVQPGGSRKLSCAASGFTFSSFGMHWVRQAPEKGLEWVAYISSGNSNIYYVDTVKGRFTISRDNPKNTLFLQMTSLRSEDTAMYYCARKRAYGDYSGFSMDYWGQGTSVTVSS VL: DIVMTQSQKFMSTSVGDRVSVTCKASQNVDTNVAWYQQKPGQSPKALIYSASYRYSGVPDRFTGSGSGTDFTLTISNVQSEDLAEYFCQQYNKFPLTFGGGTKLEIKR
% blocking of ligand binding: > 94%

Prompt line: Any idea what % blocking of ligand binding was measured for mouse anti-human HVEM antibody no. 11H7 (antibody, mouse IgG1, V domains shown, mouse IgG1/kappa; also called 11H7 (mouse)) VH: QVQLKQSGPGLVQPSQSLSITCTVSGFSLTIYGVHWVRQSPGKGLEWLGVIWSGGSTDYNAAFISRLSISKDNSKSQVFFKMNSLQANDTAIYYCARRDYGSRSFYYAMDYWGQGTSVTVSS VL: EIVLTQSPALMAASPGEKVTITCSVSSSISSSNLHWYQQKSETSPKPWIYGTSNLASGVPVRFSGSGSGTSYSLTISSMEAEDAATYYCQQWSSYPLTFGGGTKLEIK ?
Response line: > 60%
